- measuredOn: purified HLA-DR molecule DRB1*1302 (human)
- experimentalDetails: competition with 125I-labelled peptide for purified HLA
readoutName: IC50 (nM)
Number only, in nM; omit the unit.

Before answering, review these 3 worked examples.
{"binder": "LRNLMSQSRTREILT (modifications not checked) [LRNLMS1SRTREILT (Flu.PB2.10)]", "IC50 (nM)": 5.4}
{"binder": "QRGILEDEQMYQKCC (modifications not checked) [… (Flu.PB1.682)]", "IC50 (nM)": 10900}
{"binder": "GGEVRNDDVDQSLII (modifications not checked) [… (Flu.PB2.250)]", "IC50 (nM)": 2500}

Any idea what IC50 was measured for MVAYMLERELVRKTR (modifications not checked) [… (Flu.PB2.205)] ?
2080

So what's the measured IC50 for this one? RGILEDEQMYQKCCN (modifications not checked) [… (Flu.PB1.683)]
18000

Requested field: IC50. Item: PVHFRNQVKIRRRVD (modifications not checked) [… (Flu.PB2.135)]
359

// query IC50 value for entry KYPITADKRIMEMIP (modifications not checked) [… (Flu.PB2.57)]
68
